Tested on: COLO 205
assay procedure: Cancer cell growth inhibition, 72 h treatment
Assay type: cell-based
measurement setup: Homo sapiens, Colon cancer COLO 205, Hexosaminidase assay (*)
assay endpoint: pEC50
Recall that pEC50 is obtained by taking minus log10 of the concentration measured in molar.

Reported pEC50, molecule CC(C)C[C@H](NC(=O)[C@@H]1CCCN1)B(O)O [MG-319, reference compound] : ____
5.72

====

Give inhibition at 0.05 µM for every item shown.
experimental system: Human erythrocyte 20S proteasome (Homo sapiens, UniProt P28074)
Construct: Enzyme: Human erythrocyte 20S proteasome; from tissue; host or cells: human erythrocytes
assay procedure: In vitro enzymatic assay of proteasome inhibitory activity (Suc-Leu-Leu-Val-Tyr-AMC substrate)
Assay type: biochemical
measurement setup: Concentration 50 nM
Only the number, expressed in %, is required.

Consider the compound CC(C)C[C@H](NC(=O)[C@H]1N[C@@H](c2ccccc2)[C@@H]([N+](=O)[O-])[C@@H]1c1ccccc1)B(O)O [Example 4] and give its measured inhibition at 0.05 µM.
51

How about this compound: CC(C)C[C@H](NC(=O)[C@@H]1N[C@H](c2ccccc2)[C@@H]([N+](=O)[O-])[C@@H]1c1ccc(F)cc1)B(O)O [Example 6]
70

Now try CC(C)C[C@H](NC(=O)[C@@H]1N[C@H](c2cccc3ccccc23)[C@@H]([N+](=O)[O-])[C@@H]1c1ccccc1)B(O)O [Example 13] .
54

Also check CC(C)C[C@H](NC(=O)[C@@H]1N[C@H](c2ccccc2)[C@@H]([N+](=O)[O-])[C@@H]1c1cccs1)B(O)O [Example 10]
79

Here is the next compound: CC(C)C[C@H](NC(=O)[C@@H]1N[C@H](c2ccc3ccccc3c2)[C@@H]([N+](=O)[O-])[C@@H]1c1ccccc1)B(O)O [Example 12]
50

What about this compound? CC(C)C[C@H](NC(=O)[C@@H]1N[C@H](c2ccccc2)[C@@H]([N+](=O)[O-])[C@@H]1c1ccco1)B(O)O [Example 11]
81
